test: Primary qHTS for delayed death inhibitors of the malarial parasite plastid, 96 hour incubation; conditions: P. falciparum luciferase reporter growth; series mostly up to 28.7 µM
Out of some 320,000 compounds screened, about 22,000 (6.9%) were called active. Another 27% or so got no clear call; they are omitted. The call rests on the fitted dose curve; in most records, active means well fitted inhibition curve with a large enough effect; inconclusive means small, poorly fitted or top-dose-only effect, or another doubt; inactive means no such curve, though single readings can be large or run the other way. Shown is part of a subset that was picked to be rich in actives.
Select the matching outcome among active, inactive

Use these answered entries as a reference point.
compound | classAssignment
CCC(=O)Nc1ccc2c(c1)nc(CCN1CCN(c3ccccn3)CC1)n2C | inactive
COc1cc(-c2n[nH]c(=S)n2Cc2ccccc2)cc(OC)c1OC | inactive
O=C(O)C1CCCN(S(=O)(=O)c2cccc3cccnc23)C1 (stereo not drawn) | active
O=C(NCc1ccco1)C1CCCN(S(=O)(=O)c2cccc3nonc23)C1 (stereo not drawn) | inactive
CN1CCN(NC(=O)c2ccc(S(=O)(=O)N3CCCCCC3)cc2)CC1 | inactive
CN1CCN(CC(=O)Nc2sc3c(c2C#N)CCC(C(C)(C)C)C3)CC1 (stereo not drawn) | inactive

Test call, this compound: COC(=O)N/N=C/c1ccc(/C=N/NC(=O)OC)cc1 inactive

Test call, this compound: COc1ccc(C(=O)Nc2ccc3c(c2)OCO3)cc1OC inactive

Test call, this compound: COc1ccc(S(=O)(=O)N2CCC(C(=O)NCc3ccco3)CC2)cc1C active

Test call, this compound: CCc1ccc(S(=O)(=O)Nc2ccc(C)c(NS(C)(=O)=O)c2)cc1 inactive

Test call, this compound: COc1ccccc1CNC(=O)C1CCN(S(=O)(=O)c2ccc3c(c2)OCCO3)CC1 inactive

Test call, this compound: COc1ccc(C(=O)N/N=C(\C)CC(=O)Nc2ccc(Cl)cn2)cc1 inactive

Test call, this compound: Cc1c(Cl)cccc1NC(=O)CCC(=O)N/N=C/c1ccco1 inactive

Test call, this compound: CCOC(=O)C1(S(=O)(=O)c2ccccc2)CCN(Cc2ccccc2)CC1 inactive

Test call, this compound: COc1cccc(CNC(=O)C2CCN(S(=O)(=O)c3cccc4cccnc34)CC2)c1 inactive

Test call, this compound: CC1(c2ccc(Cl)cc2)NC(=O)N(CC(=O)c2ccc3c(c2)OCO3)C1=O (stereo not drawn) inactive

Test call, this compound: CCOC(=O)Cc1csc(SCC(=O)Nc2ccc(C)cc2F)n1 inactive

Test call, this compound: COc1ccc(C(=O)NC(=S)Nc2ccc(N3CCCC3)cc2)cc1OC inactive

Test call, this compound: COc1ccc(NC(=O)C2CCCN(S(=O)(=O)c3cccc4cccnc34)C2)cc1OC (stereo not drawn) active

Test call, this compound: CC(C)(C)C1CCc2c(sc3nc(SCC(N)=O)nc(N)c23)C1 (stereo not drawn) active

Test call, this compound: O=C(NC(=O)c1ccccc1)Nc1ccccc1O inactive

Test call, this compound: C#CC(C)(C)NC(=O)c1cnc(-c2ccccc2)nc1-c1ccccc1 inactive

Test call, this compound: CCOc1ccc(/C=N/NC(=O)C(C)Sc2ccccn2)cc1OCC (stereo not drawn) inactive

Test call, this compound: Cc1ccc(S(=O)(=O)N(C)C)cc1NC(=O)c1ccc(-n2cncn2)c([N+](=O)[O-])c1 inactive

Test call, this compound: Cc1ccc2c(c1)C1CN(C)CCC1N2C(=O)Cn1nnc(-c2ccccc2F)n1 (stereo not drawn) inactive

----------
assay: Primary qHTS for delayed death inhibitors of the malarial parasite plastid, 96 hour incubation; conditions: P. falciparum luciferase reporter growth; series mostly up to 28.7 µM
Among all 320,000 compounds or so, about 22,000 (6.9%) were called active. Inconclusive results (about 27%) are left out. Calls follow the shape of the dose curve; as a rule, active = well fitted inhibition curve with a large enough effect; inconclusive = small, poorly fitted or top-dose-only effect, or another doubt; inactive = no such curve, though single readings can be large or run the other way. The list comes from a sample in which actives are over-represented; it also holds close analogues and randomly drawn compounds.
Select the matching outcome among active, inactive

Use these answered entries as a reference point.
molecule | classAssignment
Nc1nnn(CC(=O)N/N=C/c2ccccc2)n1 | inactive
CC(=O)c1ccc(N2CCN(C(=O)c3ccc(Cl)c(S(=O)(=O)NC4CC4)c3)CC2)c(F)c1 | inactive
OCC[C@H]1C[C@@H](O)[C@H](O)[C@]2(OCCCc3ccccc32)O1 | inactive
O=[N+]([O-])c1cc([N+](=O)[O-])c(Oc2cc(F)cc(F)c2F)cc1NN1CCCCC1 | inactive
N#Cc1c(Cl)nc(-c2cccnc2)nc1-c1ccccc1 | inactive

Test call, this molecule: COc1ccc(Nc2ncnc3sc(C)cc23)cc1 inactive

Test call, this molecule: COC(=O)c1sccc1NC(=O)COc1ccc(Cl)cc1 inactive

Test call, this molecule: O=C(Nc1ccn(Cc2ccc(F)cc2)n1)c1ccncc1 active

Test call, this molecule: O=C(Nc1ccn(Cc2ccccc2)n1)c1cccc(F)c1 inactive

Test call, this molecule: O=S(=O)(c1ccc(Cl)cc1)c1nc(-c2ccccc2F)oc1NCCN1CCOCC1 inactive

Test call, this molecule: CN(C(=O)COC(=O)c1nc(Cl)ccc1Cl)C1CCS(=O)(=O)C1 (stereo unspecified) inactive

----------
assay: Primary qHTS for delayed death inhibitors of the malarial parasite plastid, 96 hour incubation; details: P. falciparum luciferase reporter growth; series mostly up to 28.7 µM
Screen size: about 320,000 compounds; about 22,000 (6.9%) were called active. Not shown: some 27% with an inconclusive outcome. The call rests on the fitted dose curve; in most records, active means well fitted inhibition curve with a large enough effect; inconclusive means small, poorly fitted or top-dose-only effect, or another doubt; inactive means no such curve, though single readings can be large or run the other way. The entries come from a sample that favours actives as a whole.
Select the matching outcome among 1 (active), 0 (inactive)

Use these answered entries as a reference point.
molecule | classAssignment
O=C(Cc1cccs1)N(CC1CCCO1)C1(C(=O)NC2CCCCC2)CCCCC1 (stereo unspecified) | 0
Cn1c(=O)c2sccc2n(Cc2ccc(Br)cc2)c1=O | 0
CCOC(=O)CSc1nnc(-c2ccco2)n1C | 0
O=C(COC(=O)c1cc(=O)[nH]c2ccccc12)NCc1cccc(Cl)c1 | 0

Test call, this molecule: O=C(CSc1nnc(-c2ccccn2)n1-c1ccccc1)Nc1ccc2c(c1)OCO2 0

Test call, this molecule: COc1ccc(-n2c(SCC(=O)OC(C)C)nnc2-c2ccccn2)cc1 1

Test call, this molecule: CN1CCN(c2ccccc2NC(=O)COc2ccc(C3CCCCC3)cc2)CC1 0

Test call, this molecule: COc1ccc(-c2nnc(SCC(=O)c3ccco3)n2-c2ccccc2)cc1 0

Test call, this molecule: Cc1ccc(N(C(=O)CC2NC(=O)NC2=O)C2(C(=O)NC3CCCC3)CCCCC2)cc1 (stereo unspecified) 0

Test call, this molecule: COc1ccc(NC(=O)CNC(=O)Cn2ccc3ccccc3c2=O)c(OC)c1 0

Test call, this molecule: CN(Cc1ccccc1)S(=O)(=O)c1nnc(NC(=O)c2ccccc2F)s1 0

----------
experiment: Primary qHTS for delayed death inhibitors of the malarial parasite plastid, 96 hour incubation; conditions: P. falciparum luciferase reporter growth; series mostly up to 28.7 µM
In all, about 320,000 compounds went through this assay and about 22,000 (6.9%) were called active. Inconclusive results (about 27%) are left out. Calls come from the whole dose curve; as a rule, active = well fitted inhibition curve with a large enough effect; inconclusive = small, poorly fitted or top-dose-only effect, or another doubt; inactive = no such curve, though single readings can be large or run the other way. This is one part of a sample in which actives are shown more often than they occur.
Select the matching outcome among t for active, f for inactive

compound | classAssignment
C=CC1C(OC2OC(CO)C(O)C(O)C2O)OC=C(C(=O)OC)C1CC1CC(=O)CC(CC(=O)CCc2ccc(O)cc2)O1 (stereo not given) | t
Oc1c(Cl)cc(Cl)cc1/C=N/c1ncn[nH]1 | f
CC/C(=N\NC(=O)c1c(C)nc2ccccn12)c1ccc(Cl)cc1 | f
Cc1ccc(NC(=O)CCN2C(=O)c3ccccc3C2=O)cc1C | f
Cc1cc2c(cc1C)N(C(=O)CN1C(=O)c3ccccc3C1=O)C(C)(C)c1ssc(=S)c1-2 | t
O=C(/C=C/c1cccc([N+](=O)[O-])c1)OCC(=O)N1CCOCC1 | f

Test call, this compound: CC(/C=C/C1(O)C(C)CC(=O)CC1(C)C)OC1OC(CO)C(O)C(O)C1O (stereo not given) f

Test call, this compound: Cc1ccc(CN2CCCC(C(=O)c3ccc4c(c3)OCO4)C2)cc1C (stereo not given) f

----------
test: Primary qHTS for delayed death inhibitors of the malarial parasite plastid, 96 hour incubation; settings: P. falciparum luciferase reporter growth; series mostly up to 28.7 µM
The campaign covered roughly 320,000 compounds. About 22,000 (6.9%) were called active. Inconclusive results (about 27%) are left out. Calls follow the shape of the dose curve; as a rule, active = well fitted inhibition curve with a large enough effect; inconclusive = small, poorly fitted or top-dose-only effect, or another doubt; inactive = no such curve, though single readings can be large or run the other way. Shown is part of a subset that was picked to be rich in actives.
Select the matching outcome among active, inactive

Test call, this compound: NC(=O)CSc1nnc(NC(=O)c2ccc3ccccc3c2)s1 inactive

Test call, this compound: O=C(CSc1nnc(-c2ccccc2O)o1)NC1CCCCC1 inactive

----------
experiment: Primary qHTS for delayed death inhibitors of the malarial parasite plastid, 96 hour incubation; conditions: P. falciparum luciferase reporter growth; series mostly up to 28.7 µM
About 22,000 (6.9%) of roughly 320,000 compounds were called active. Not shown: some 27% with an inconclusive outcome. The call rests on the fitted dose curve; in most records, active means well fitted inhibition curve with a large enough effect; inconclusive means small, poorly fitted or top-dose-only effect, or another doubt; inactive means no such curve, though single readings can be large or run the other way. This is one part of a sample in which actives are shown more often than they occur.
Select the matching outcome among label 1 (active), label 0 (inactive)

molecule | classAssignment
COc1ccc(C(=O)OCC(=O)Nc2cccc(C(C)=O)c2)cc1OC | label 0

Test call, this molecule: CCOC(=O)N1CCN(C(=O)CSc2nnc(-c3c[nH]c4ccccc34)n2CCOC)CC1 label 0

Test call, this molecule: COc1ccc(N2CCC(N3CCN(C)C(CCO)C3)CC2)cc1 (stereo not drawn) label 1

Origin of values: PubChem BioAssay AID504834
